ASSAY_DETAILS: Pharmacokinetics in mouse
Assay type: in vivo
CONDITION_NOTES: plasma; male C57BI/6N mouse, po 10 mg/kg, cassette
ASSAY_ENDPOINT: AUC(0-t) (ng·h/mL)
I only need the number, in ng·h/mL, no unit after it.

| MOLECULE | DISPLAY_UNIT | OBSERVED_MEASUREMENT |
| --- | --- | --- |
| Cc1nc(N(C)C(=O)Cc2ccc(-c3cc(F)ccc3F)cc2)sc1[S@@](C)(=N)=O [Comparative Example C4/2, reference compound] | ng·h/mL | 46600 |

Now consider a different molecule.
Note AUC(0-t) for the molecule shown: [2H]C([2H])([2H])c1nc(N(C)C(=O)Cc2ccc(-c3cc(F)ccc3F)cc2)sc1[S@@](C)(=N)=O (single isomer, unassigned)
80200
